Values of log10 Kd reported for UniProt:P56817 appear below.
Counter-ions that a name gives are not always drawn.
// do not treat as linear: log10 of Kd, unit nM

Request: Given the compound CC(F)(F)C(=O)Nc1ccc(F)c([C@]2(C)COCC(N)=N2)c1 [Example 90, formate] , write its reported log10 Kd.
Result: 2.17

Request: Answer with reported log10 Kd of CC1(C)OCC(N)=N[C@]1(C)c1cc(NC(=O)C2(C(F)(F)F)CC2)ccc1F [Example 55]
Result: 3.81

Request: Complete the entry with log10 Kd for CC1(c2cccc(NC(=O)c3ccc(OCCF)cn3)c2)COCC(N)=N1 (racemic) [Example 61, hydrochloride]
Result: 2.64

Request: Respond only with log10 Kd recorded for CCC(=O)Nc1ccc(F)c([C@]2(C)COCC(N)=N2)c1 [Example 94, formate]
Result: 3.43

Request: Identify log10 Kd associated with the compound CC1(C)OCC(N)=N[C@]1(C)c1cc(NC(=O)C2CC2(F)F)ccc1F (mixture of isomers) [Example 56]
Result: 4.03

Request: Give log10 Kd for the following compound: C[C@@]1(c2cc(NC(=O)c3cnc(C(F)(F)F)cn3)ccc2F)COCC(N)=N1 [Example 82, formate]
Result: 2.11

Request: Name the recorded log10 Kd of the item COCC(=O)Nc1ccc(F)c([C@]2(C)COCC(N)=N2)c1 [Example 84, formate] in your answer.
Result: 2.42

Request: State, in one line, measured log10 Kd of Cc1cc(Cl)cnc1C(=O)Nc1ccc(F)c([C@]2(C)COCC(N)=N2)c1 [Example 98]
Result: 1.15

Request: Answer with reported log10 Kd of C[C@@]1(c2cc(NC(=O)C(F)(F)C(F)F)ccc2F)COCC(N)=N1 [Example 83, formate]
Result: 2.96

Request: For the compound Cc1nc(C(=O)Nc2cccc(C3(C)COCC(N)=N3)c2)cs1 (racemic) [Example 10] , report log10 Kd.
Result: 3.52

Turning now to a further compound:
Request: Read the entry C[C@@]1(c2cc(NC(=O)c3ncc(C#N)cc3Cl)ccc2F)COCC(N)=N1 [Example 67, hydrochloride] and write its reported log10 Kd.
Result: 1.04

====

Biological target: BACE1 (Homo sapiens)
Sequence (P56817 46-501): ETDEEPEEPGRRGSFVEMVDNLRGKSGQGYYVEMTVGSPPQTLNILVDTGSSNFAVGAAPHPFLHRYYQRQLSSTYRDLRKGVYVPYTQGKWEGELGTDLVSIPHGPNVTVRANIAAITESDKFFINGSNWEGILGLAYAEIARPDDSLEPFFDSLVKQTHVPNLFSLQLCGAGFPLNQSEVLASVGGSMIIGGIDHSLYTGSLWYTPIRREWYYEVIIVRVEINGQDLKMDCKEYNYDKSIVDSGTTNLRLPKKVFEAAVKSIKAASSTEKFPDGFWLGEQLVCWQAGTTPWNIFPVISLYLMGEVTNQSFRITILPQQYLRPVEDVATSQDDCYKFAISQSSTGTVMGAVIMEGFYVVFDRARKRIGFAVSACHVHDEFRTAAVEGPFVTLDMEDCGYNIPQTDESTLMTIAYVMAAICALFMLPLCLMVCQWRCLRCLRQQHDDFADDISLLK
Test: Cellular Abeta-lowering assay
Conditions: HEK293 cells stably transfected with human APP wt (APP695), Aβ40 ELISA of supernatant after 18-20 hrs
Structures can show the parent of a compound that is named as a salt.
assay_readout: IC50 (nM)
Provide the reading as a plain figure in nM.

Request: Consider the molecule "C[C@@]1(c2cc(NC(=O)c3coc(C(F)(F)F)c3)ccc2F)COCC(N)=N1" and give its recorded IC50.
Result: 550

Request: Kindly indicate its recorded IC50. Item: C[C@@]1(c2cc(NC(=O)C(F)F)ccc2F)COCC(N)=N1 [Example 91, formate]
Result: 1460

Request: Write down IC50 measured for item CC1(c2cc(NC(=O)c3cc(-c4cccs4)on3)ccc2F)COCC(N)=N1 (racemic)
Result: 500

Next:
Request: Complete the entry with IC50 for CC(=O)Nc1ccc(F)c([C@]2(C)COCC(N)=N2)c1 [Example 93, formate]
Result: 6820

Request: For C[C@@]1(c2cc(NC(=O)C(F)(F)C(F)F)ccc2F)COCC(N)=N1 [Example 83, formate] , write its IC50.
Result: 300

Request: Please list IC50 recorded for the molecule CC1(C)OCC(N)=N[C@]1(C)c1cc(NC(=O)C2CC2(F)F)ccc1F (mixture of isomers)
Result: 1190

Request: Quickly give me recorded IC50 for CC(F)(F)C(=O)Nc1ccc(F)c([C@]2(C)COCC(N)=N2)c1 [Example 90, formate]
Result: 220

Request: Let me know recorded IC50 for CC1(c2cc(NC(=O)c3ccc(Cl)cc3)ccc2F)COCC(N)=N1 (racemic) , thanks.
Result: 130

====

The entries below are paired with their reported IC50.
Target: BACE2 (Rattus norvegicus)
Construct: endogenous cellular BACE2 in the Ins1e rat cell line; endogenous in cells
Sequence (Q6IE75 63-514): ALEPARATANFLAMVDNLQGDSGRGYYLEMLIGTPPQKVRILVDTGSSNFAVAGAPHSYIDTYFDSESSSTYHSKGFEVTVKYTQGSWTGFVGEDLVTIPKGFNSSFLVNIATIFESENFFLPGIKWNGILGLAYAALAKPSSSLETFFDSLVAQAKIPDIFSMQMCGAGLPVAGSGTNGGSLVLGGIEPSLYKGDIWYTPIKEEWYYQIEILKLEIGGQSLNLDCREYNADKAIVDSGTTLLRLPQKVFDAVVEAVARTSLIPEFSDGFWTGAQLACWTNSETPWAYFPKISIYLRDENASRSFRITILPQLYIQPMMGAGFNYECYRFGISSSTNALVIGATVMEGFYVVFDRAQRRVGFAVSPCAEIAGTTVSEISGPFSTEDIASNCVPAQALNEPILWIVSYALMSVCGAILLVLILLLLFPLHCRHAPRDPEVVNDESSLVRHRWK
Assay: Assay for BACE inhibition by measuring cellular TMEM27 cleavage
Conditions: INS-TMEM27 (INS1e-derived) cells, ELISA of shed human TMEM27 in supernatant
Give your result in nM as a bare value.

Examples with their reported IC50 follow.
Request: Param request: IC50 | system BACE2 (Rattus norvegicus) | item CC1(c2cc(NC(=O)c3ccc(Cl)cc3)ccc2F)COCC(N)=N1 (racemic)
Result: 837

Request: Provide BACE2 (Rattus norvegicus) IC50 reading for "C[C@@]1(c2cc(NC(=O)c3ncoc3-c3ccccc3)ccc2F)COCC(N)=N1" .
Result: 620

Request: Print BACE2 (Rattus norvegicus) IC50 for CC1(c2cccc(NC(=O)c3ncc(Cl)cc3Cl)c2)COCC(N)=N1 (racemic) .
Result: 48

Request: Under BACE2 (Rattus norvegicus), report IC50 for "C[C@@]1(c2cc(NC(=O)c3ccc(Cl)cn3)ccc2F)CO[C@H](Cc2ccccc2)C(N)=N1"
Result: 58

Continuing:
Request: Quote BACE2 (Rattus norvegicus) IC50 for entry "C[C@@]1(c2cc(NC(=O)c3sccc3Cl)ccc2F)COCC(N)=N1" .
Result: 720

Request: Under BACE2 (Rattus norvegicus), report IC50 for Cc1cc(C(=O)Nc2cccc(C3(C)COCC(N)=N3)c2)c(C)o1 (racemic)
Result: 51

Request: Check BACE2 (Rattus norvegicus) data and give IC50 for "Cn1cc(Cl)c(C(=O)Nc2ccc(F)c([C@]3(C)COCC(N)=N3)c2)n1" .
Result: 13

====

Target: BACE2 (Rattus norvegicus)
Construct: endogenous cellular BACE2 in the Ins1e rat cell line; endogenous in cells
Test: Assay for BACE inhibition by measuring cellular TMEM27 cleavage;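 further: inhibitor added 2 h before doxycycline-induced hTMEM27 expression, supernatant collected after further 46 h, endogenous BACE2 activity read as reduced TMEM27 shedding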
Conditions: INS-TMEM27 (INS1e-derived) cells, ELISA of shed human TMEM27 in supernatant
Where a name gives a salt, the structure may show the parent alone.
assay_readout: pIC50
Recall that pIC50 is obtained by taking minus log10 of the concentration measured in molar.

Request: # return recorded pIC50 for input C[C@@]1(c2cc(NC(=O)C(F)(F)C(F)F)ccc2F)COCC(N)=N1 [Example 83, formate]
Result: 6.89

Request: Please list pIC50 recorded for the molecule CC1(C)OCC(N)=N[C@]1(C)c1cc(NC(=O)c2ccc(OCC(F)(F)F)cn2)ccc1F [Example 50]
Result: 5.85

Request: Find the measured pIC50 of C[C@@]1(c2cc(NC(=O)c3ncccc3OCC(F)(F)F)ccc2F)COCC(N)=N1 [Example 48] and report it.
Result: 7.28

Request: Look up and state reported pIC50 for CC1(C)OC[C@@](C)(c2cccc(NC(=O)c3ccc(Cl)cn3)c2)N=C1N [Example 51]
Result: 8.30

Request: Given CC1(c2cccc(NC(=O)c3ncc(F)cc3F)c2)COCC(N)=N1 (racemic) [Example 1] , respond with its pIC50.
Result: 7.68

Request: In one line, give reported pIC50 of the entry CC1(c2cc(NC(=O)C3(C(F)(F)F)CC3)ccc2F)COCC(N)=N1 (racemic) [Example 57] .
Result: 6.49

Request: Name the recorded pIC50 of the molecule listed here: Cc1ccsc1C(=O)Nc1ccc(F)c([C@]2(C)COCC(N)=N2)c1 [Example 44]
Result: 6.51

Request: Specify reported pIC50 for the molecule shown: CC1(c2cccc(NC(=O)c3cccc(Cl)c3)c2)COCC(N)=N1 (racemic) [Example 6]
Result: 6.18

Request: # return recorded pIC50 for entry CC(F)C(=O)Nc1ccc(F)c([C@]2(C)COCC(N)=N2)c1 (mixture of isomers) [Example 87, formate]
Result: 7.28

Request: Dear colleague, please send me the reported pIC50 for C[C@@]1(c2cc(NC(=O)c3ccc(C#N)cn3)ccc2F)COCC(N)=N1 [Example 72, hydrochloride] when you can.
Result: 7.41

====

Target: UniProt P56817
Experiment: Cellular Abeta-lowering assay
Conditions: HEK293 cells stably transfected with human APP wt (APP695), Aβ40 ELISA of supernatant after 18-20 hrs
Counter-ions that a name gives are not always drawn.
Each entry below lists one item and its recorded pIC50 value.
# log scale: pIC50 equals minus log10 of the concentration in mol/L

# example entries with known answers
Request: Give the measured pIC50 for CC1(c2cccc(NC(=O)c3ccc(OCC4CC4)cn3)c2)COCC(N)=N1 (racemic) [Example 60, hydrochloride]
Result: 6.85

Request: # return recorded pIC50 for entry "C[C@@]1(c2cc(NC(=O)c3ccc(C#N)cc3F)ccc2F)COCC(N)=N1"
Result: 6.72

Request: Please report the measured pIC50 for CC1(c2cc(NC(=O)C(F)(F)C(F)(F)F)ccc2F)COCC(N)=N1 (racemic)
Result: 6.43

More entries:
Request: Note down pIC50 recorded for CC1(c2cc(NC(=O)c3ccc(N4CCCC4)cn3)ccc2F)COCC(N)=N1 (racemic)
Result: 6.10

Request: Provide one value: measured pIC50 of C[C@@]1(c2cc(NC(=O)C3CC3(F)F)ccc2F)COCC(N)=N1 (mixture of isomers)
Result: 6.21

Request: # return recorded pIC50 for input "Cc1ccsc1C(=O)Nc1ccc(F)c([C@]2(C)COCC(N)=N2)c1"
Result: 6.33

Request: Assign pIC50 to the following record: CC1(c2cccc(NC(=O)c3ccc(Cl)s3)c2)COCC(N)=N1 (racemic)
Result: 6.49

Request: Retrieve pIC50 measured for "C[C@@]1(c2cc(NC(=O)c3ccc(Cl)cn3)ccc2F)CO[C@@H](c2ccccc2)C(N)=N1" and print it.
Result: 7.64

The reported measurements were obtained from patent US20130196984A1.
